Listed compounds paired with reported pKi
- TARGET: UniProt:P18089
- Sequence (P18089 whole entry): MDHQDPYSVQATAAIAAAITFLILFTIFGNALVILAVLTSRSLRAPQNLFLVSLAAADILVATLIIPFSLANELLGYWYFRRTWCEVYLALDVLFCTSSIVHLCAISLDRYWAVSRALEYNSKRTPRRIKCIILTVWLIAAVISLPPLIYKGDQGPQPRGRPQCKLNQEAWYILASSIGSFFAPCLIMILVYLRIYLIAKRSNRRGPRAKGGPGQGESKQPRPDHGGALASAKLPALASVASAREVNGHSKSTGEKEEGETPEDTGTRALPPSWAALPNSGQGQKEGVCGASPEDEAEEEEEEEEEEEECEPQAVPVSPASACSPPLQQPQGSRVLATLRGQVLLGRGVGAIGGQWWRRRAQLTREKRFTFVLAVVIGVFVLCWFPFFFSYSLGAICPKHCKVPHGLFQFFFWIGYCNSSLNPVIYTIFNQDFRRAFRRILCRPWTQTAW
- MEASUREMENT PROTOCOL: Radioligand binding, adrenergic α2B (Protocol Group B)
- Design: purchased Milipore (Millipore)
- MEASUREMENT SETUP: Ki α2B, Protocol Group B; estimated Ki
Recall that pKi is obtained by taking minus log10 of the concentration measured in molar.

Cc1ccc2c(c1)c1c(n2CC(C)(O)c2cccnc2)CC2CCC1N2C (single isomer, unassigned) [101a]: 7.79

// switching to the query compound
Any idea what its pKi is? The compound is Cc1ccc2c(c1)c1c(n2CC(C)(O)c2ccc(F)cc2)CC2CCC1N2C (single isomer, unassigned) [102b]
7.71

====

- TARGET: Human adrenergic α1B receptor (Homo sapiens)
- Sequence (P35368 whole entry): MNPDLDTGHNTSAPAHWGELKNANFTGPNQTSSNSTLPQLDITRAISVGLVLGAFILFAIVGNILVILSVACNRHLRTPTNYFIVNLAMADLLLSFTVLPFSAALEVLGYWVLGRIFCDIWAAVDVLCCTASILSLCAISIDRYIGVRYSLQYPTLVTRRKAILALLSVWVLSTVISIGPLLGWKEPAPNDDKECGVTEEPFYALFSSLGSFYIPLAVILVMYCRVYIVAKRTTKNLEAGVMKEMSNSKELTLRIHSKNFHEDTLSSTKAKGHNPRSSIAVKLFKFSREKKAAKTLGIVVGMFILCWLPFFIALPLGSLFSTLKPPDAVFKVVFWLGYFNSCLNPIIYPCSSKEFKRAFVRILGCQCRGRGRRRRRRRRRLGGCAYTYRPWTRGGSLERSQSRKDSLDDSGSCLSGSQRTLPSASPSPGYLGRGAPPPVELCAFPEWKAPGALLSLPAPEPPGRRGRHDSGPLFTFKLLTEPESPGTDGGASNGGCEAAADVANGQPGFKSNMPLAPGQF
- MEASUREMENT PROTOCOL: β-Arrestin GPCR functional assay, adrenergic α1B (Protocol B)
- MEASUREMENT SETUP: β-arrestin, antagonist vs nor-epinephrine EC80
// boundary case: IC50 equal to 200 nM maps to Not met; strictly smaller maps to Met

Previously resolved entries follow.
Cc1cc(C)c2c(c1)c1c(n2CC(C)(O)c2cccnc2)CCN2CCCC12 (single isomer, unassigned) [44a]: Not met
Cc1cc(Cl)c2c(c1)c1c(n2CC(C)(O)c2ccncc2)CCN2CCCC12 (single isomer, unassigned) [91a]: Not met
Cc1ccc2c(c1)c1c(n2CC(C)(O)c2ccncc2)CCN2CCCC12 (single isomer, unassigned) [13b]: Met
Cc1ccc2c(c1)c1c(n2CC(O)c2ccncc2F)CCN2CCCC12 (single isomer, unassigned) [14b]: Met
Cc1ccc2c(c1)c1c(n2CC(OCC2CCC2)c2ccncc2)CCN2CCCC12 (single isomer, unassigned) [138b]: Not met

For CC(O)(Cn1c2c(c3cc(F)ccc31)C1CCCN1CC2)c1ccncc1 (single isomer, unassigned) [31b] , is the recorded IC50 below the cut-off of 200 nM?
Not met

Given Cc1cc(C)c2c(c1)c1c(n2CC(C)(O)c2ccncc2)CCN2CCCC12 (single isomer, unassigned) [19a] , is recorded IC50 strictly lower than 200 nM?
Met

====

- TARGET: UniProt:P18089
- MEASUREMENT PROTOCOL: Radioligand binding, adrenergic α2B (Protocol Group B)
- Parameters: purchased Milipore (Millipore)
- MEASUREMENT SETUP: 0.1 μM compound; Protocol Group B; 0.1 µM
PARAMETER MEASURED: Percentage inhibition of ligand binding, Adrenergic α2B (0.1 μM)

Completed entries (count: 5):
Cc1ccc2c(c1)c1c(n2CC(C)(O)c2ccc(F)cc2)CC2CCC1N2C (single isomer, unassigned) [102c]: −8%
CC(O)(Cn1c2c(c3cc(F)ccc31)C1CCCN1CC2)c1cccnc1 (stereo not drawn) [57b]: 8%
Cc1cc(F)cc2c3c(n(CC(C)(O)c4cccnc4)c12)CC1CCCN1C3 (single isomer, unassigned) [76b]: 20%
Cc1cc(F)c2c(c1)c1c(n2CC(C)(O)c2cccnc2)CC2CCCN2C1 (single isomer, unassigned) [61b]: 28%
Cc1cc(F)cc2c3c(n(CC(C)(O)c4cccnc4)c12)CC1CCCN1C3 (single isomer, unassigned) [76a]: 53%

Please report the recorded Percentage inhibition of ligand binding, Adrenergic α2B (0.1 μM) for Cc1ccc2c(c1)c1c(n2CC(O)c2ccncc2)CN(C)C2CCCC12 (single isomer, unassigned) [36b] .
−10%

Can you share its Percentage inhibition of ligand binding, Adrenergic α2B (0.1 μM)? I mean this molecule: Cc1cc(F)c2c(c1)c1c(n2CC(C)(O)c2ccncc2)CCN2CCCC12 (single isomer, unassigned) [81d]
18%

Which Percentage inhibition of ligand binding, Adrenergic α2B (0.1 μM) is reported for this molecule? CC(O)(Cn1c2c(c3cc(F)ccc31)C1CCCN1CC2)c1ccncc1 (single isomer, unassigned) [31d]
17%

Fill blank: measured Percentage inhibition of ligand binding, Adrenergic α2B (0.1 μM) of the molecule Cc1ccc2c(c1)c1c(n2CC(C)(O)c2ccncc2)CC2CCCN2C1 (single isomer, unassigned) [37d] is ____.
68%

What Percentage inhibition of ligand binding, Adrenergic α2B (0.1 μM) value was documented for this molecule, Cc1ccc2c(c1)c1c(n2CC(C)(O)c2ccc(F)cc2)CC2CCC1N2C (single isomer, unassigned) [102d] ?
−8%

Percentage inhibition of ligand binding, Adrenergic α2B (0.1 μM) for Cc1ccc2c(c1)c1c(n2CC(C)(O)c2ccncc2)CC2CCCN2C1 (single isomer, unassigned) [37b] ?
75%
